target: Fibrinogen beta chain (Homo sapiens) (UniProt P02675); assay: small molecules displacing Tn7 from DD(E) complex – biochemical, fluorescence polarization, human fibrin, Tn7 probe, primary screen (AID 720508); conditions: FP displacement of FITC-Tn7 peptide from fibrin DD(E); at 8.3 µM; stronger effect = higher value; 0% = median of compound wells per plate;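 also: 0% = plate median of compound wells and 100% = 10 µM Aha-Tn7 peptide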
Sequence (P02675 whole entry, looked up): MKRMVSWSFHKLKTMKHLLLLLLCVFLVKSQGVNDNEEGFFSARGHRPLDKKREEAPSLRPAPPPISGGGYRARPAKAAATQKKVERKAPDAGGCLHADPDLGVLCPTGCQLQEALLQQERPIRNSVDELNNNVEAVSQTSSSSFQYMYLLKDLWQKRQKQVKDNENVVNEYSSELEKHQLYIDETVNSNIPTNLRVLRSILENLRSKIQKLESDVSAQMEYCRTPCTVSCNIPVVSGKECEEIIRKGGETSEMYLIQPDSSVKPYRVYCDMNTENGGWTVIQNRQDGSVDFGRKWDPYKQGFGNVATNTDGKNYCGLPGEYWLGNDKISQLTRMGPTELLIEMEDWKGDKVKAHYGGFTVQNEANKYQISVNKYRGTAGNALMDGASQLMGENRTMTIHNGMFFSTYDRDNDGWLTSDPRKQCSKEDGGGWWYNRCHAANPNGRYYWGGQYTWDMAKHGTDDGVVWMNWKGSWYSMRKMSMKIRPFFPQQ
Out of some 370,000 compounds screened, about 500 (0.14%) were called active. Many of the other results were omitted from the sample, so actives are more common in it than they were.
Record form. Attribute: inhibition. Fill in for each entry.
Just the number please, in %, no unit attached.

Would you kindly share the measured inhibition for O=C(COC(=O)/C=C/c1ccc(OC(F)F)cc1)NC1CCCCC1 ? 13.9

Would you kindly share the measured inhibition for CN(C)S(=O)(=O)c1ccc(N/C=C(\[N+](=O)[O-])S(=O)(=O)c2ccccc2)cc1 ? -0.82

Would you kindly share the measured inhibition for CC(=O)CC(CC(=O)NC1CCCCC1)c1ccccc1 (stereo unspecified) ? 4.93

Would you kindly share the measured inhibition for COc1cc(OC)cc(C(=O)NCC(=O)OCc2csc(-c3ccccc3)n2)c1 ? 1.99

Would you kindly share the measured inhibition for O=S1(=O)CC(N2CCN(Cc3ccccc3F)CC2)CN1Cc1cn(Cc2cccc(C(F)(F)F)c2)nn1 (stereo unspecified) ? 1.27

Would you kindly share the measured inhibition for CC(C)CCN1CCN=C1N(C)C ? -8.21

Would you kindly share the measured inhibition for CC(C)(C)OC(=O)N1CCC(C(=O)Nc2cccc(C(=O)NCCc3ccccc3)c2)CC1 ? -2.62

Would you kindly share the measured inhibition for CC(C)[C@H](NC(=O)N1CCn2c1nc1ccccc12)C(=O)NCc1ccc2c(c1)OCO2 ? 1.52

Would you kindly share the measured inhibition for O=C(c1ccc(OC2CCN(C(=O)c3cccnc3)CC2)cc1)N1CCCCCC1 ? 3.65

Would you kindly share the measured inhibition for CN1c2ccc(C=O)c3c(C=O)ccc(c23)N(C)C1(C)C ? 16.9

Would you kindly share the measured inhibition for CC(C)c1nnc(NC(=O)CCC(=O)N2CCN(c3cccc(Cl)c3)CC2)s1 ? 3.33
